Source listed as paper PMC8065987.

pIC50: recorded values
- Target Or Test System: COX-2 (Homo sapiens, UniProt P35354)
- Sequence (P35354 18-604): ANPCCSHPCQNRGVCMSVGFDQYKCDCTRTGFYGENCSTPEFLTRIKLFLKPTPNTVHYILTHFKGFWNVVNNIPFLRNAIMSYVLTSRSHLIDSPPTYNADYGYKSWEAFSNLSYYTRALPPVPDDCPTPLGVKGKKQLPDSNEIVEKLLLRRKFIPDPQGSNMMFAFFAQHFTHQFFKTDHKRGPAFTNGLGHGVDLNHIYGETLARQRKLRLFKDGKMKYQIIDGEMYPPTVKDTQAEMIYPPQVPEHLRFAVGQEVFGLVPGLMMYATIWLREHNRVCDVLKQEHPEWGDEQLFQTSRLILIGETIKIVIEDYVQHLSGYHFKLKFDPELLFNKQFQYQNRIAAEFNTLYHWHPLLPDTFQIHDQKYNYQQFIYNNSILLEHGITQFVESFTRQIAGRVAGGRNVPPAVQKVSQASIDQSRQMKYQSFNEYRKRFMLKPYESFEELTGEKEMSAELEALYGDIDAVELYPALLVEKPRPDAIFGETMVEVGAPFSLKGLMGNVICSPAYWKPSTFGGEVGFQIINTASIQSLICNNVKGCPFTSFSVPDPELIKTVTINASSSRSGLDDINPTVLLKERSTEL
- Method: In vitro COX-2 inhibitory assay (COX-2 (human) inhibitor screening assay kit, fluorescence)
- Condition Context: triplicate; read-out: COX-2 inhibition IC50 (isolated compounds)
Note on units: pIC50 is unitless, being -log10 of a concentration expressed in mol/L.

1) COc1cc(C2Oc3c(OC)cc(/C=C\C(=O)NCCc4ccc(O)cc4)cc3C2C(=O)NCCc2ccc(O)cc2)ccc1O (stereo not drawn) [Compound 1, N-cis-grossamide] = 5.36

Here is another compound to look at.
Write down pIC50 measured for item COc1cc(C2Oc3c(OC)cc(/C=C/C(=O)NCCc4ccc(O)cc4)cc3C2C(=O)NCCc2ccc(O)cc2)ccc1O (stereo not drawn) [Compound 2, N-trans-grossamide]
5.71
